Origin of the recorded values: paper PMC5063506

Molecular target: mouse TLR4/MD2 (Mus musculus, UniProt Q9JHF9+Q9QUK6)
Construct: host or cells: HEK293
Sequence (Q9QUK6 26-835): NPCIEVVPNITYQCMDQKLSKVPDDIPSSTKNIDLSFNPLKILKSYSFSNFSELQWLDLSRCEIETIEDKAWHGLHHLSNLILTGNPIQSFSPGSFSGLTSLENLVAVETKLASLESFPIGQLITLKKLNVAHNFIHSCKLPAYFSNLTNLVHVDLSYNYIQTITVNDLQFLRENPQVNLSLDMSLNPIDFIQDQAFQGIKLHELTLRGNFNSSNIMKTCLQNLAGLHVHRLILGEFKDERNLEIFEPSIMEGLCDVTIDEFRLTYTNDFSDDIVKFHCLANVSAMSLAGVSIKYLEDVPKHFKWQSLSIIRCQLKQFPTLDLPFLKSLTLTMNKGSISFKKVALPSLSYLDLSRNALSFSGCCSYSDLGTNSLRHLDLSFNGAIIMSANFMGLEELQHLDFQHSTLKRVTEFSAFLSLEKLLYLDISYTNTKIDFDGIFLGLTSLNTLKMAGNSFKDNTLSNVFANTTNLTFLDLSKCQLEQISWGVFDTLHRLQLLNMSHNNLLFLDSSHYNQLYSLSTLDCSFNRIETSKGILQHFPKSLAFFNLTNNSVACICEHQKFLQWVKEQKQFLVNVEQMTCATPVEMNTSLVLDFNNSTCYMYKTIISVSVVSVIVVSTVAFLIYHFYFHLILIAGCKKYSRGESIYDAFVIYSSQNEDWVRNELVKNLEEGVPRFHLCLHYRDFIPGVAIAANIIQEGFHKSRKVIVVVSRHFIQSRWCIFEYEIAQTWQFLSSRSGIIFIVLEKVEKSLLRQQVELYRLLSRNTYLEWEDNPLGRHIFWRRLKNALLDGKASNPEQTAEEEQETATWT
Sequence (Q9JHF9 19-160): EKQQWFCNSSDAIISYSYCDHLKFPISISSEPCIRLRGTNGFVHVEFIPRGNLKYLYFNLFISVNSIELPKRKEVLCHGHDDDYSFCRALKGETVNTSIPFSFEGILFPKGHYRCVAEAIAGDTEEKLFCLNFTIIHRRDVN
Assay: mTLR4/MD2-HEK293 transfectant SEAP (QUANTI-Blue) dose response, AUC
Format: cell-based
Conditions: 1 μg/ml to 4 ng/ml, 24 h, SEAP OD 650 nm vs log concentration
Known mTLR4-HEK AUC of a selection of molecules
Measure: mTLR4-HEK AUC

Molecule: Cc1ccc(N(C(=O)c2cc(-c3ccccc3)n(-c3ccccc3)n2)C(C(=O)NC2CCCC2)c2ccc(CC(=O)O)cc2)cc1Cl (stereo not drawn) [AZ161]
Experimental system: mouse TLR4/MD2 (Mus musculus, UniProt Q9JHF9+Q9QUK6)
Measure: mTLR4-HEK AUC
Observed: 0.99
//
Molecule: O=C(O)Cc1ccc(C(C(=O)NC2CCCC2)N(C(=O)c2cc(-c3ccccc3)n(-c3ccccc3)n2)c2ccc3c(c2)CCC3)cc1 (stereo not drawn) [AZ617]
Experimental system: mouse TLR4/MD2 (Mus musculus, UniProt Q9JHF9+Q9QUK6)
Measure: mTLR4-HEK AUC
Observed: 0.89
//
Molecule: CC(C)(C)c1ccc(N(C(=O)c2cc(-c3ccccc3)n(-c3ccccc3)n2)C(C(=O)NC2CCCC2)c2ccc(CC(=O)O)cc2)cc1 (stereo not drawn) [AZ902]
Experimental system: mouse TLR4/MD2 (Mus musculus, UniProt Q9JHF9+Q9QUK6)
Measure: mTLR4-HEK AUC
Observed: 1.55
//
Molecule: CCCCCCCCCCCCCC(=O)O[C@H](CCCCCCCCCCC)CC(=O)O[C@@H]1[C@@H](NC(=O)C[C@H](CCCCCCCCCCC)OC(=O)CCCCCCCCCCCCC)[C@H](OC[C@H]2O[C@H](O)[C@H](NC(=O)C[C@H](O)CCCCCCCCCCC)[C@@H](OC(=O)C[C@H](O)CCCCCCCCCCC)[C@@H]2O)O[C@H](CO)[C@H]1OP(=O)(O)O [GLA, glucopyranosyl lipid A, reference compound]
Experimental system: mouse TLR4/MD2 (Mus musculus, UniProt Q9JHF9+Q9QUK6)
Measure: mTLR4-HEK AUC
Observed: 14.24
//
Molecule: Cc1cccc(CN(C(=O)c2cc(-c3ccccc3)n(-c3ccccc3)n2)C(C(=O)NC2CCCC2)c2ccc(CC(=O)O)cc2)c1C (stereo not drawn) [AZ839]
Experimental system: mouse TLR4/MD2 (Mus musculus, UniProt Q9JHF9+Q9QUK6)
Measure: mTLR4-HEK AUC
Observed: 0.93
//
Molecule: Cc1cc(C)cc(N(C(=O)c2cc(-c3ccccc3)n(-c3ccccc3)n2)C(C(=O)NC2CCCC2)c2ccc(CC(=O)O)cc2)c1 (stereo not drawn) [AZ618]
Experimental system: mouse TLR4/MD2 (Mus musculus, UniProt Q9JHF9+Q9QUK6)
Measure: mTLR4-HEK AUC
Observed: 1.03

====

Test: Intrinsic clearance in presence of rat hepatocytes
Format: in vitro ADME
Conditions: rat, read-out: Clint rh (intrinsic clearance, rat hepatocytes)

Compound: COc1ccc(N(C(=O)c2[nH]c(-c3ccccc3)cc2C)C(C(=O)NC2CCCC2)c2ccncc2)cc1 (stereo not shown) [AZ126]
Unit text: µL/min/1e6 cells
hepatocyte CLint: 28

====

Assay: Solubility by dissolution of solid samples in buffer
Assay type: physicochemical
Details: aqueous buffer, thermodynamic from solid; solid samples in buffer at pH 7.4
Measure: solubility (µM)

Compound: C#Cc1ccc(C(C(=O)NC2CCCC2)N(C(=O)c2cc(-c3ccccc3)n(-c3ccccc3)n2)c2ccc(OC)cc2)cc1 (stereo not drawn) [AZ606]
Observed: 2.2
--
Compound: O=C(O)Cc1ccc(C(C(=O)NC2CCCC2)N(C(=O)c2cc(-c3ccccc3)n(-c3ccccc3)n2)c2ccc3c(c2)CCC3)cc1 (stereo not drawn) [AZ617]
Observed: 129
--
Compound: COc1ccc(N(C(=O)c2[nH]c(-c3ccccc3)cc2C)C(C(=O)NC2CCCC2)c2ccncc2)cc1 (stereo not drawn) [AZ126]
Observed: 0.1

====

Test: Intrinsic clearance in presence of rat hepatocytes
Type: in vitro ADME
Details: read-out: Clint rh (intrinsic clearance, rat hepatocytes)
Source text: Fig 2 Optimization stages of Ugi products as TLR4 agonists. *Human TLR-4 NFκB SEAP reporter assays; protocol as described in Methods. Data are reported as pEC50, or negative log of the EC50 values. **Clint rh / hm represents intrinsic clearance in presence of rat hepatocytes (μL/min/10^6 cells) and human microsomes (μL/min/mg protein). […]

Molecule: C#Cc1ccc(C(C(=O)NC2CCCC2)N(C(=O)c2cc(-c3ccccc3)n(-c3ccccc3)n2)c2ccc(OC)cc2)cc1 (centres unmarked)
Limit qualifier: =
hepatocyte CLint, µL/min/1e6 cells: 36
--
Molecule: O=C(O)Cc1ccc(C(C(=O)NC2CCCC2)N(C(=O)c2cc(-c3ccccc3)n(-c3ccccc3)n2)c2ccc3c(c2)CCC3)cc1 (centres unmarked)
Limit qualifier: <
hepatocyte CLint, µL/min/1e6 cells: 5

====

Assay: LogD, octanol/water distribution coefficient
Type: physicochemical
Details: pH 7.4; octanol/water distribution coefficient at pH7.4

Molecule: Cc1ccc(N(C(=O)c2cc(-c3ccccc3)n(-c3ccccc3)n2)C(C(=O)NC2CCCC2)c2ccc(CC(=O)O)cc2)cc1Cl (stereo not shown) [AZ161]
Limit qualifier: =
logD: 3.2
--
Molecule: COc1ccc(N(C(=O)c2cc(-c3ccccc3)n(-c3ccccc3)n2)C(C(=O)NC2CCCC2)c2ccncc2)cc1 (stereo not shown) [AZ842]
Limit qualifier: >
logD: 4.5
--
Molecule: O=C(O)Cc1ccc(C(C(=O)NC2CCCC2)N(C(=O)c2cc(-c3ccccc3)n(-c3ccccc3)n2)c2ccc3c(c2)CCC3)cc1 (stereo not shown) [AZ617]
Limit qualifier: =
logD: 2.85
--
Molecule: Cc1cccc(CN(C(=O)c2cc(-c3ccccc3)n(-c3ccccc3)n2)C(C(=O)NC2CCCC2)c2ccc(CC(=O)O)cc2)c1C (stereo not shown) [AZ839]
Limit qualifier: =
logD: 3.62
--
Molecule: C#Cc1ccc(C(C(=O)NC2CCCC2)N(C(=O)c2cc(-c3ccccc3)n(-c3ccccc3)n2)c2ccc(OC)cc2)cc1 (stereo not shown) [AZ606]
Limit qualifier: >
logD: 4.5
--
Molecule: CC(C)(C)c1ccc(N(C(=O)c2cc(-c3ccccc3)n(-c3ccccc3)n2)C(C(=O)NC2CCCC2)c2ccc(CC(=O)O)cc2)cc1 (stereo not shown) [AZ902]
Limit qualifier: >
logD: 4.5
--
Molecule: CC(C)c1ccc(N(C(=O)c2cc(-c3ccccc3)n(-c3ccccc3)n2)C(C(=O)NC2CCCC2)c2ccc(CC(=O)NO)cc2)cc1 (stereo not shown) [AZ226]
Limit qualifier: >
logD: 4.5

====

Known log10 EC50 of a selection of compounds
Molecular target: human TLR4 (Homo sapiens, UniProt O00206+Q9Y6Y9)
Construct: expressed in transfected cells; host or cells: HEK293 with stably integrated pNiFty2-SEAP reporter
Sequence (O00206 24-839): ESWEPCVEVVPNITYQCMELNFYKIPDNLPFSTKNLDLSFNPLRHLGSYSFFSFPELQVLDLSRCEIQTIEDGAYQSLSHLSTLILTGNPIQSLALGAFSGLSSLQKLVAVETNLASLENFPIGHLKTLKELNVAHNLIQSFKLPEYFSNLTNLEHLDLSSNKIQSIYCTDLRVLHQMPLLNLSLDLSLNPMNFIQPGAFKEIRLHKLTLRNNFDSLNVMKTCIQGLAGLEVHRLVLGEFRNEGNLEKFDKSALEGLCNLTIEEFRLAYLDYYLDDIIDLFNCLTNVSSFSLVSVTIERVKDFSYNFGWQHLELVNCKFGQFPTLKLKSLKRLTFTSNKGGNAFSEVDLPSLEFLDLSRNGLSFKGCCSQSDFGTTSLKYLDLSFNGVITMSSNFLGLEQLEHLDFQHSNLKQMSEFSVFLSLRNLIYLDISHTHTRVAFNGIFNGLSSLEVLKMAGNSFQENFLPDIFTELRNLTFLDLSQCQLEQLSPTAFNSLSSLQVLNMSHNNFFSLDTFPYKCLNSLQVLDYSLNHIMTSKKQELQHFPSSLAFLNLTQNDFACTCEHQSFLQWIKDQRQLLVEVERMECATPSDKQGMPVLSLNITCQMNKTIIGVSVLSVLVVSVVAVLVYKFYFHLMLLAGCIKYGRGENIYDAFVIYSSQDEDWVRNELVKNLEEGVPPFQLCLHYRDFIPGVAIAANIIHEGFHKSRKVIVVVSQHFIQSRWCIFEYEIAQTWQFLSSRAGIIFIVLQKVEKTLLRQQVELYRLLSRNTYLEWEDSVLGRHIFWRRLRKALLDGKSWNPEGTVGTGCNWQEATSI
Sequence (Q9Y6Y9 19-160): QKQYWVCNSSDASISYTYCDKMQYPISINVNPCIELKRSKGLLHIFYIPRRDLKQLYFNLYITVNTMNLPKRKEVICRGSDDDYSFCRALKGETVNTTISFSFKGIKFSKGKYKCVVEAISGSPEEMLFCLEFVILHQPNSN
Assay: Human TLR4 NFκB SEAP reporter gene assay in hTLR4-transfected HEK293 cells
Format: cell-based
Details: NFκB SEAP reporter, hTLR4-transfected HEK293 cells, 20 h; read-out: Human TLR4 pEC50 (converted)
Measure: log10 EC50 (log10 of the value in nM)

Compound: COc1ccc(N(C(=O)c2cc(-c3ccccc3)n(-c3ccccc3)n2)C(C(=O)NC2CCCC2)c2ccc(CC(=O)O)cc2)cc1 (stereo not drawn) [AZ635]
Measure: log10 EC50
Observed: 2.00
--
Compound: Cc1cc(C)cc(N(C(=O)c2cc(-c3ccccc3)n(-c3ccccc3)n2)C(C(=O)NC2CCCC2)c2ccc(CC(=O)O)cc2)c1 (stereo not drawn) [AZ618]
Measure: log10 EC50
Observed: 1.30
--
Compound: O=C(O)Cc1ccc(C(C(=O)NC2CCCC2)N(C(=O)c2cc(-c3ccccc3)n(-c3ccccc3)n2)c2ccc(Cc3ccccc3)cc2)cc1 (stereo not drawn) [AZ897]
Measure: log10 EC50
Observed: 1.09
--
Compound: C#Cc1ccc(C(C(=O)N[C@@H](C(=O)O)C(C)C)N(C(=O)c2cc(-c3ccccc3)n(-c3ccccc3)n2)c2ccc(OC)cc2)cc1 (stereo partly drawn) [AZ792]
Measure: log10 EC50
Observed: 3.30
--
Compound: CC(C)(C)c1ccc(N(C(=O)c2cc(-c3ccccc3)n(-c3ccccc3)n2)C(C(=O)NC2CCCC2)c2ccc(CC(=O)O)cc2)cc1 (stereo not drawn) [AZ902]
Measure: log10 EC50
Observed: 0.80
--
Compound: CC(C)c1ccc(N(C(=O)c2cc(-c3ccccc3)n(-c3ccccc3)n2)C(C(=O)NC2CCCC2)c2ccc(CC(=O)NO)cc2)cc1 (stereo not drawn) [AZ226]
Measure: log10 EC50
Observed: 2.20

====

Target: human TLR4/MD2 (Homo sapiens, UniProt O00206+Q9Y6Y9)
Construct: host or cells: HEK293
Sequence (O00206 24-839): as the sequence (O00206 24-839) above
Sequence (Q9Y6Y9 19-160): as the sequence (Q9Y6Y9 19-160) above
Assay: hTLR4/MD2-HEK293 transfectant SEAP (QUANTI-Blue) dose response, AUC
Assay type: cell-based
Details: 1 μg/ml to 4 ng/ml, 24 h, SEAP OD 650 nm vs log concentration
Measure: hTLR4-HEK AUC

Molecule: Cc1cccc(CN(C(=O)c2cc(-c3ccccc3)n(-c3ccccc3)n2)C(C(=O)NC2CCCC2)c2ccc(CC(=O)O)cc2)c1C (stereo not drawn)
Experimental system: human TLR4/MD2 (Homo sapiens, UniProt O00206+Q9Y6Y9)
Measure: hTLR4-HEK AUC
Observed: 6.00
--
Molecule: Cc1ccc(N(C(=O)c2cc(-c3ccccc3)n(-c3ccccc3)n2)C(C(=O)NC2CCCC2)c2ccc(CC(=O)O)cc2)cc1Cl (stereo not drawn)
Experimental system: human TLR4/MD2 (Homo sapiens, UniProt O00206+Q9Y6Y9)
Measure: hTLR4-HEK AUC
Observed: 5.54
--
Molecule: Cc1cc(C)cc(N(C(=O)c2cc(-c3ccccc3)n(-c3ccccc3)n2)C(C(=O)NC2CCCC2)c2ccc(CC(=O)O)cc2)c1 (stereo not drawn)
Experimental system: human TLR4/MD2 (Homo sapiens, UniProt O00206+Q9Y6Y9)
Measure: hTLR4-HEK AUC
Observed: 6.56
--
Molecule: O=C(O)Cc1ccc(C(C(=O)NC2CCCC2)N(C(=O)c2cc(-c3ccccc3)n(-c3ccccc3)n2)c2ccc3c(c2)CCC3)cc1 (stereo not drawn)
Experimental system: human TLR4/MD2 (Homo sapiens, UniProt O00206+Q9Y6Y9)
Measure: hTLR4-HEK AUC
Observed: 5.90
--
Molecule: CC(C)(C)c1ccc(N(C(=O)c2cc(-c3ccccc3)n(-c3ccccc3)n2)C(C(=O)NC2CCCC2)c2ccc(CC(=O)O)cc2)cc1 (stereo not drawn)
Experimental system: human TLR4/MD2 (Homo sapiens, UniProt O00206+Q9Y6Y9)
Measure: hTLR4-HEK AUC
Observed: 7.04
--
Molecule: CCCCCCCCCCCCCC(=O)O[C@H](CCCCCCCCCCC)CC(=O)O[C@@H]1[C@@H](NC(=O)C[C@H](CCCCCCCCCCC)OC(=O)CCCCCCCCCCCCC)[C@H](OC[C@H]2O[C@H](O)[C@H](NC(=O)C[C@H](O)CCCCCCCCCCC)[C@@H](OC(=O)C[C@H](O)CCCCCCCCCCC)[C@@H]2O)O[C@H](CO)[C@H]1OP(=O)(O)O [GLA, glucopyranosyl lipid A, reference compound]
Experimental system: human TLR4/MD2 (Homo sapiens, UniProt O00206+Q9Y6Y9)
Measure: hTLR4-HEK AUC
Observed: 3.75
